Tested on: E31 (patient-derived glioblastoma stem cells of proneural subtype);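 note: cell Painting imaging in 384-well plates, CellProfiler features reduced to at least 20 principal components, Euclidean distance versus same-plate DMSO vehicle wells (0.1% v/v), median over six images per well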
PROTOCOL DETAILS: phenotypic distance (Euclidean, principal components) from DMSO controls (arbitrary units); higher = stronger morphological change
STATED CONDITIONS: 37 nM; exposure time: 72 h
Where a name gives a salt, the structure may show the parent alone.
// map phenotypic distance onto a label; ranges low (below 0.8), moderate (0.8 to below 2), high (2 or more)

Illustrative cases are given below, each with its answer.
1. COc1ccc([C@@H]2CC(=O)c3c(O)cc(O[C@@H]4O[C@H](CO[C@@H]5O[C@@H](C)[C@H](O)[C@@H](O)[C@H]5O)[C@@H](O)[C@H](O)[C@H]4O)cc3O2)cc1O :: low
2. CC(=O)[C@]1(O)Cc2c(O)c3c(c(O)c2[C@@H](O[C@H]2C[C@H](N)[C@H](O)[C@H](C)O2)C1)C(=O)c1ccccc1C3=O :: high
3. O=C(CCBr)N1CCN(C(=O)CCBr)CC1 :: low
4. Cc1cc(/C=C/c2ccc3cc(N(C)C)ccc3[n+]2C)c(C)n1-c1ccccc1 [Pyrvinium pamoate] :: high
5. COc1cc(OC)c(C(=O)CCCN2CCCC2)c(OC)c1 [Buflomedil hydrochloride] :: moderate
6. Nc1nc(=O)c2nc(CNc3ccc(C(=O)N[C@@H](CCC(=O)O)C(=O)O)cc3)cnc2[nH]1 :: low
7. Nc1ccn([C@@H]2O[C@H](CO)[C@@H](O)C2(F)F)c(=O)n1 [Gemcitabine HCl] :: high
8. CC(C)C[C@H](NC(=O)CNC(=O)c1cc(Cl)ccc1Cl)B1OC(=O)C(CC(=O)O)(CC(=O)O)O1 :: high

Inquiry: Please classify: CC[C@@]1(O)C(=O)OCc2c1cc1n(c2=O)Cc2cc3c(CN(C)C)c(O)ccc3nc2-1
Reply text: high

Inquiry: Any idea which band Nc1ccc(-c2ccc3ncc4ccc(=O)n(-c5cccc(C(F)(F)F)c5)c4c3c2)cn1 is in?
Reply text: high

Inquiry: Into which bin does this molecule go? Cc1ccc(/C=N/NC(=O)c2n[nH]c3c2CCCC3)cc1
Reply text: moderate

Inquiry: Any idea which band Oc1c(Cl)cc(Cl)c(Cl)c1Cc1c(O)c(Cl)cc(Cl)c1Cl is in?
Reply text: moderate

The measurements presented in this section are drawn from the supplement of paper PMC13207355.
